System: PfAP2-HC AP2 domain (GST-tagged)
assay comment: gcPBM binding intensity (ln(normalized median fluorescence intensity)); higher = stronger DNA binding
The full ranking holds about 25,000 sequences; the median of “ln(normalized median fluorescence intensity)” is about 9.7, and the highest 2% start at about 11. This excerpt belongs to a sample that is enriched for the highest values.
reported endpoint: gcPBM binding intensity (ln)

sequence data | tested on | measured number
GAATACACCACGCACACACACTTGAGAAAAAATAAA [CACACA_site7747] | PfAP2-HC AP2 domain (GST-tagged) | 10.3
AAGGATATAACATACACACACACACGGATATAAATA [CACACA_site7867] | PfAP2-HC AP2 domain (GST-tagged) | 11
CATTATTTATTTTAATGTACTTATTTTTAAATTGGT [XGTACX_site8038] | PfAP2-HC AP2 domain (GST-tagged) | 9.54
AAAAAAAAAAAACATACACACATACATACAGATATA [CACACA_site4681] | PfAP2-HC AP2 domain (GST-tagged) | 10.1
AAATAACACATATATACACACATATAAATATAATAT [CACACA_site2692] | PfAP2-HC AP2 domain (GST-tagged) | 10.3
AAAGAAAGAAAACACACACACATATATATATATCAA [CACACA_site3743] | PfAP2-HC AP2 domain (GST-tagged) | 10.9
TAGATACAGAAACACACACACACATACATATATACA [CACACA_site3437] | PfAP2-HC AP2 domain (GST-tagged) | 10.6
ATCAAAAGAAAACACACACACATACAGATATATATA [CACACA_site5974] | PfAP2-HC AP2 domain (GST-tagged) | 11.2
ACAAGAGAAAAAAATACACACAAGATAAAAATGTAT [CACACA_site607] | PfAP2-HC AP2 domain (GST-tagged) | 9.95
